These entries and their values trace back to PubChem BioAssay (EPA / NIEHS).

Measurement Notes: NVS_GPCR_bNPY_NonSelective: NovaScreen (NVS) G Protein-Coupled Receptor Assay for bovine Neuropeptide Y (NPY) Receptor, Non-selective Binding (AID 2283245)
Inconclusive results are not listed. Calls of active or inactive are those of the source. How the source made its calls: active means hit-call score of the fitted dose curve at least 0.9, where 1 is the maximum; inconclusive means response in the unintended direction; inactive means score below 0.9.
Log the outcome using a class from t for active, f for inactive

Please review the following examples before continuing.
> print(dat)
                                item.smiles  class.label
1  NCc1cccc(C2CCN(C(=O)c3ccc(C#Cc4ccccc4F)o3)CC2)c1            t
2  CN(C)C(=O)C1(N2CCCCC2)CCN(CC[C@@]2(c3ccc(Cl)c(Cl)c3)CN(C(=O)c3ccccc3)CCO2)CC1            t
3  CCN(CC)C(=O)c1cc(S(=O)(=O)Cc2ccccc2)c(N2CCC(c3ccccc3)CC2)cc1N(CC)CCN(C)C            f
4                   CCCCCCCCCCCC[N+](C)(C)C            f
5  CCOC(=O)O[C@H](C)OC(=O)c1ccc2c(c1)cc(C(=O)NC1CCN(C(C)C)CC1)n2Cc1cc(-c2ccc(Cl)s2)on1            t

Lab note: next molecule to report on.
input: Hey, what did the test say about COc1ccc2cc(S(=O)(=O)N[C@H](CC(=O)N[C@H](Cc3ccc(CN4[C@H](C)CCC[C@@H]4C)cc3)C(=O)N(C)C(C)C)c3ccc4c(c3)OCO4)ccc2c1 ?
output: t

* * *

Measurement Notes: TOX21_p53_BLA_p4_viability: Viability Assessment in the Tox21 HCT-116 p53 Agonism Beta-lactamase Assay, Phase 4 (AID 2283597);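 further: hits lower the luminescence signal meaning cytotoxicity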
Results filed as inconclusive are left out. Active and inactive are the calls of the source. How the source made its calls: active means hit-call score of the fitted dose curve at least 0.9, where 1 is the maximum; inconclusive means response in the unintended direction; inactive means score below 0.9.
Log the outcome using a class from True (active), False (inactive)

> print(dat)
                                   compound  class.label
1  COc1cccc([C@H](O)C2CCN(CCc3ccc(F)cc3)CC2)c1OC        False
2  C[C@]12CC[C@@H]3c4ccc(O)cc4CC[C@H]3[C@@H]1CC[C@H]2O        False
3                      CCCCCCCCN(C)CCCCCCCC        False
4  Cc1oc2c(NC(=O)c3c(Cl)cccc3Cl)cccc2c1C(C)(C)O        False
5         CC(O)CC(C)(C)O (stereo not given)        False

input: Hey, what did the test say about Cc1cc2c(cc1C(F)(F)F)N(C(=O)Nc1ccc(Oc3cccnc3C)nc1)CC2 ?
output: False

input: Hey, what did the test say about CCCC(=O)OCCC(C)C ?
output: False

input: Hey, what did the test say about CCCOC(=O)c1cc(O)c(O)c(O)c1 ?
output: False

input: Hey, what did the test say about Cc1cc(F)ccc1-c1cc(N2CC[C@@H](O)[C@H]2CO)ncc1N(C)C(=O)C(C)(C)c1cc(C(F)(F)F)cc(C(F)(F)F)c1 ?
output: True

input: Hey, what did the test say about O=C(O)Cn1c(=O)n(Cc2ccc(Br)cc2F)c(=O)c2ccc(Cl)cc21 ?
output: False

input: Hey, what did the test say about O=c1c(-c2ccc(O)cc2)coc2cc(O)cc(O)c12 ?
output: False

input: Hey, what did the test say about COc1cc(C(=O)NC2CCN(C)CC2)ccc1Nc1ncc2c(n1)N(C1CCCC1)CC(F)(F)C(=O)N2C ?
output: True

* * *

Read-out: CYP2C9 (gene 1559)
Measurement Notes: LTEA_HepaRG_CYP2C9: Life Technologies and Expression Analysis (LTEA) Assay for CYP2C9 using HepaRG (AID 2283484)
Applied Conditions: mRNA level, 48 h; actives raise or lower the signal
Activity calls are given as the source filed them. How the source made its calls: active means hit-call score of the fitted dose curve at least 0.9, where 1 is the maximum; inactive means score below 0.9.
Log the outcome using a class from 1 (yes) for active, 0 (no) for inactive

Please review the following examples before continuing.
> print(dat)
                                   molecule  class.label
1  COc1cccc([C@H](O)C2CCN(CCc3ccc(F)cc3)CC2)c1OC       0 (no)
2                      O=C1CCC(C2CCCCC2)CC1       0 (no)
3  Cc1ccc2oc(CN(Cc3ccccc3)C(=O)Nc3c(F)cc(F)cc3F)c(-c3ccc(Cl)cc3)c2c1      1 (yes)

input: Hey, what did the test say about c1ccc(C[n+]2cccc3ccccc32)cc1 ?
output: 1 (yes)

input: Hey, what did the test say about O=c1[nH]sc2ccccc12 ?
output: 0 (no)

input: Hey, what did the test say about CN(C[C@@H](CC[N+]12CCC(C3CCCCC3)(CC1)CC2)c1ccc(Cl)c(Cl)c1)C(=O)c1cc(C(F)(F)F)cc(C(F)(F)F)c1 ?
output: 1 (yes)

input: Hey, what did the test say about CCCCCCCCOc1ccc(C(=O)c2ccccc2)c(O)c1 ?
output: 0 (no)

input: Hey, what did the test say about CC(O)CC(C)(C)O (stereo unspecified) ?
output: 0 (no)

input: Hey, what did the test say about CC(C)(O)c1ccc(CNC(=O)c2cccnc2Oc2ccc3nonc3c2)cc1 ?
output: 0 (no)

input: Hey, what did the test say about CCCCCCCCN(C)CCCCCCCC ?
output: 0 (no)

input: Hey, what did the test say about O=C(O)Cn1c(=O)n(Cc2ccc(Br)cc2F)c(=O)c2ccc(Cl)cc21 ?
output: 0 (no)

* * *

Read-out: Vascular cell adhesion molecule 1 (VCAM1), VCAM1 (gene 7412)
Measurement Notes: BSK_CASM3C_VCAM1: BioMAP Diversity Plus: CASM3C Assay for Vascular cell adhesion molecule 1 (VCAM1) Biomarker Activity (AID 2283055);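 further: VCAM-1 protein level quantified by ELISA on the cells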
Applied Conditions: primary human coronary artery smooth muscle cells; actives raise or lower the signal
Active and inactive are the calls of the source. Rule for the calls: active = hit-call score of the fitted dose curve at least 0.9, where 1 is the maximum; inactive = score below 0.9.
Log the outcome using a class from True = active, False = inactive

> print(dat)
                                item.smiles  class.label
1  C[C@]12CC[C@@H]3c4ccc(O)cc4CC[C@H]3[C@@H]1CC[C@H]2O         True
2                           Cc1cccc2ccccc12        False
3                          O=c1ccc2ccccc2o1        False
4  Cc1occc1C(=O)Nc1ccc(C(=O)N2CCC(F)(F)/C(=C\C(=O)N3CCC(N4CCCCC4)CC3)c3ccccc32)cc1        False
5                   CCCCCCCCCCCC[N+](C)(C)C         True

Lab note: next compound to report on.
input: Hey, what did the test say about NC(=O)c1nc(-c2cccc(-c3cc(F)ccc3OCC(F)(F)C(F)(F)F)c2)n[nH]1 ?
output: False

* * *

Measurement Notes: ATG_GLI_CIS: Attagene CIS-FACTORIAL HepG2 Assay for human Zinc Finger Protein GLI1 (AID 2282945)
Applied Conditions: HepG2, Attagene cis-factorial reporter mRNA, GLI element; actives raise or lower the signal
Activity calls are given as the source filed them. Rule for the calls: active = hit-call score of the fitted dose curve at least 0.9, where 1 is the maximum; inactive = score below 0.9.
Measurement Type: outcome

Take a look at these entries with their results.
> print(dat)
                                   compound  value.reported
1  Cc1cc(F)ccc1-c1cc(N2CC[C@@H](O)[C@H]2CO)ncc1N(C)C(=O)C(C)(C)c1cc(C(F)(F)F)cc(C(F)(F)F)c1        inactive
2  CCCCOC(=O)CC(CC(=O)OCCCC)(OC(C)=O)C(=O)OCCCC        inactive
3                        Cc1ncc(CO)c(CO)c1O        inactive
4  O=C1c2ccccc2C(=O)N1CCc1noc(-c2ccc(CN3CCCCCC3)s2)n1        inactive
5       CC(O)CC(C)(C)O (stereo unspecified)        inactive

input: Answer with reported outcome of CCCCCCCCCCCCO
output: inactive

* * *

Read-out: Fatty acid synthase (Homo sapiens) (UniProt P49327)
Sequence (P49327 whole entry, looked up): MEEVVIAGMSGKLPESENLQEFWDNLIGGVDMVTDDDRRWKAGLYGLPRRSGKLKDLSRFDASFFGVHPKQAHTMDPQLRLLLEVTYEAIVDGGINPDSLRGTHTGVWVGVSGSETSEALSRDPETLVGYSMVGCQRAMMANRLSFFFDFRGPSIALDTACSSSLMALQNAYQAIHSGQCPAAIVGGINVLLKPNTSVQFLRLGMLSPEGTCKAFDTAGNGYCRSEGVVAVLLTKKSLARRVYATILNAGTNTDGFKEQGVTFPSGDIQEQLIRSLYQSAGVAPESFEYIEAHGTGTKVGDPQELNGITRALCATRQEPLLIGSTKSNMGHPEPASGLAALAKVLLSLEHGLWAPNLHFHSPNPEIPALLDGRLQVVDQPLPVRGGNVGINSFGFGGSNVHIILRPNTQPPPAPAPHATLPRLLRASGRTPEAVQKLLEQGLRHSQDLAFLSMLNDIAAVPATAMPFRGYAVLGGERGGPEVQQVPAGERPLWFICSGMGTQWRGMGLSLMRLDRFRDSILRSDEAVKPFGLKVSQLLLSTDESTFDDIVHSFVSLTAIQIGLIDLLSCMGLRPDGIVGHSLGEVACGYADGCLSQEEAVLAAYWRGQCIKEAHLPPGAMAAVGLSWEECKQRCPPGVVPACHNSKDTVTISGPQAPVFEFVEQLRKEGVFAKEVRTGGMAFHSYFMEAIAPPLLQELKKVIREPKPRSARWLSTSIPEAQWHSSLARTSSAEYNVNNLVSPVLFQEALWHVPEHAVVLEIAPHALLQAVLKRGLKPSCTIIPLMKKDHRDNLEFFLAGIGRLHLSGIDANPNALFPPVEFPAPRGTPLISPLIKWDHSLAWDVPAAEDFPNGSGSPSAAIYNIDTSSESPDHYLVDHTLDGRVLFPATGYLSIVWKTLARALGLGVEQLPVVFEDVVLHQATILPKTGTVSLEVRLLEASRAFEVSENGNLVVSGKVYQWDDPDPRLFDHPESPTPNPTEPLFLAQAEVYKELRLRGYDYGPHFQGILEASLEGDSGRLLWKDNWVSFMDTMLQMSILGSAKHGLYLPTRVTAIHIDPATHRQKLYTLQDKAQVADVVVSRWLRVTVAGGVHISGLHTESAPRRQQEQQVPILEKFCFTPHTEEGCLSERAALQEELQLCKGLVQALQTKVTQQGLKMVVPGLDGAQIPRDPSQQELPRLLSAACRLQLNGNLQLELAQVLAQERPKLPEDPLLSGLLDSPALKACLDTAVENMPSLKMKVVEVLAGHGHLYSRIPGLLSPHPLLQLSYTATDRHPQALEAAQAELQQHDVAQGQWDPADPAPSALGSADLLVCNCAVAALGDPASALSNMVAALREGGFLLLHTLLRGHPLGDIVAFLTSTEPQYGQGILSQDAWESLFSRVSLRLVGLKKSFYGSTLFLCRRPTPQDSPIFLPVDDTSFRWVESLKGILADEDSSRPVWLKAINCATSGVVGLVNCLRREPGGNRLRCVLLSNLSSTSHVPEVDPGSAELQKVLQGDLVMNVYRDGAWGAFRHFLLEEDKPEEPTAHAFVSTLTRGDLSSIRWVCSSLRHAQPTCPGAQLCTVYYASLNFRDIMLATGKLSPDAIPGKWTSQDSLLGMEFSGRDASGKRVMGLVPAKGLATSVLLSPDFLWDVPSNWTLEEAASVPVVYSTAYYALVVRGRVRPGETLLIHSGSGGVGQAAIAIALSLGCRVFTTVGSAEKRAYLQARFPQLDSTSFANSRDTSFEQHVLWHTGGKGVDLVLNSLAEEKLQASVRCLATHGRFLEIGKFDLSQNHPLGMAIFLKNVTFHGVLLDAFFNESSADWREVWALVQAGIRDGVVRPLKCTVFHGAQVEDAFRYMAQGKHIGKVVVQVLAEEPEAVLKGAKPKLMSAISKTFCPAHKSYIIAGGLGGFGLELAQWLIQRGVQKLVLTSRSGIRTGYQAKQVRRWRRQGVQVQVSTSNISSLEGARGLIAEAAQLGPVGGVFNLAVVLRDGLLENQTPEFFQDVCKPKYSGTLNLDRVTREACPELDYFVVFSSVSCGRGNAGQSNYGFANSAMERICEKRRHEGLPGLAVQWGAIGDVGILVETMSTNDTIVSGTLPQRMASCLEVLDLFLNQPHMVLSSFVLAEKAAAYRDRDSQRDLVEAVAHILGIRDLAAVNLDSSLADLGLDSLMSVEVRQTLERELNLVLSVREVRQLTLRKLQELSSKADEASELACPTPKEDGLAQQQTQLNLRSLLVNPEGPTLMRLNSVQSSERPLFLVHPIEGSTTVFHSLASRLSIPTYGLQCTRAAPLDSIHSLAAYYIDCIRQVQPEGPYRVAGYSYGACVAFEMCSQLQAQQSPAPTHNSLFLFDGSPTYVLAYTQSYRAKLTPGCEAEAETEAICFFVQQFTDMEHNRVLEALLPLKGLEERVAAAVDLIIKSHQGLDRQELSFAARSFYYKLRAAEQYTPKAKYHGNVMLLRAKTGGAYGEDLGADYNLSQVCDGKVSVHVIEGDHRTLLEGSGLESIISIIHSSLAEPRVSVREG
Measurement Notes: LTEA_HepaRG_FASN: Life Technologies and Expression Analysis (LTEA) Assay for Fatty Acid Synthase (FASN) using HepaRG (AID 2283448);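 on AC50: differentiated human HepaRG liver cells in serum-free induction medium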
Applied Conditions: mRNA level, 48 h; actives raise or lower the signal
Active and inactive are the calls of the source. Rule for the calls: active = hit-call score of the fitted dose curve at least 0.9, where 1 is the maximum; inactive = score below 0.9.
Measurement Type: AC50

> print(dat)
                                item.smiles  measurement.type    value.reported
1  CCN(CC)C(=O)c1cc(S(=O)(=O)Cc2ccccc2)c(N2CCC(c3ccccc3)CC2)cc1N(CC)CCN(C)C              AC50  4.87 µM (active)
2           O=C1O[C@H]([C@@H](O)CO)C(O)=C1O              AC50          inactive
3  CC1(C)NC(=O)N(c2ccc([N+](=O)[O-])c(C(F)(F)F)c2)C1=O              AC50          inactive
4       O=C(Nc1ccc(Cl)cc1)Nc1ccc(Cl)c(Cl)c1              AC50  17.5 µM (active)
5  CCCCOC(=O)CC(CC(=O)OCCCC)(OC(C)=O)C(=O)OCCCC              AC50          inactive

input: Answer with reported AC50 of O=C(O)Cc1cc(I)c(Oc2ccc(O)c(I)c2)c(I)c1
output: 50 µM (active)

input: Answer with reported AC50 of Cc1cc2c(cc1C(F)(F)F)N(C(=O)Nc1ccc(Oc3cccnc3C)nc1)CC2
output: inactive

input: Answer with reported AC50 of O=C(O)c1ccccc1-n1cc(C(=O)O)c(=O)c2cc(Nc3c(F)cc(F)cc3Cl)c(Cl)cc21
output: inactive

input: Answer with reported AC50 of Cc1oc2c(NC(=O)c3c(Cl)cccc3Cl)cccc2c1C(C)(C)O
output: 31.2 µM (active)

input: Answer with reported AC50 of O=c1[nH]sc2ccccc12
output: inactive

input: Answer with reported AC50 of CN1C(=O)CC[C@H]1c1cccnc1
output: inactive
